- Test system: DU-145
- MEASUREMENT_NOTES: NCI tumour cell line growth inhibition, 48 h
Activity calls are given as the source filed them. Cut-off read from the data, not from the text of the source: active = GI50 up to about 1.1 µM and inactive = higher. Non-standard residues stand in square brackets, D forms with d. Residues, ends and D or L forms follow the SMILES beside them. ξ: configuration not given here. *: point of attachment. dThr(3ξ) = CC(O)[C@@H](N)C(=O)O; dNMeL = CN[C@H](CC(C)C)C(=O)O; OBn = c1ccc(CO*)cc1; ξLac = CC(O)C(=O)O
Labels: active, inactive

# MOLECULE, SUBJECT_OF_TEST, CLASSIFICATION
data = [
    ("CCSCCCSCCSCC", "DU-145", "inactive"),
    ("O=C1C(Br)=CC2(C=C1Br)CCNC1=C2C(=O)c2ncccc2C1=O", "DU-145", "inactive"),
    ("CC(=O)OCC1OC(N2C(C)=C(C(C)=O)C(c3ccco3)C(C#N)=C2S)C(OC(C)=O)C(OC(C)=O)C1OC(C)=O (stereo not given)", "DU-145", "inactive"),
    ("CN(C)CCNC(=O)c1cccc(C(=O)Nc2ccccc2)c1[N+](=O)[O-]", "DU-145", "inactive"),
    ("O=CNC(Cc1c[nH]cn1)C(=O)O (stereo not given)", "DU-145", "inactive"),
    ("Nc1ncc(Cc2nn3c(COc4ccc(Cl)cc4)nnc3s2)s1", "DU-145", "inactive"),
    ("COc1cc(C(=O)Nc2c3ccccc3nc3ccccc23)cc(OC)c1OC", "DU-145", "inactive"),
    ("NS(=O)(=O)c1ccc(/N=N/c2ccc(O)cc2)cc1", "DU-145", "inactive"),
    ("CC(C)(C)OC(=O)Cn1ncn(NC(=O)Cc2ccccc2)c1=S", "DU-145", "inactive"),
    ("C#CCN1CCN(C(=S)N/N=C(\\C)c2ccccn2)CC1", "DU-145", "inactive"),
    ("CC(=O)Nc1ccc(C(=O)NN2C(=O)CSC2c2ccc(O)cc2)cc1 (stereo not given)", "DU-145", "inactive"),
    ("COc1cc([C@@H]2c3cc4c(cc3[C@@H](Nc3ccc([N+](=O)[O-])cc3C(=O)c3ccccc3)[C@H]3COC(=O)[C@H]23)OCO4)cc(OC)c1OC", "DU-145", "active"),
    ("COc1ccc2sc(-n3nc4ccccc4c3Nc3nc4ccc(OC)cc4s3)nc2c1", "DU-145", "inactive"),
    ("COc1cccc2c1[C@H](OC)[C@]13O[C@@]1(C2=O)[C@H](O)[C@H](C)[C@@](O)(C(=O)[C@@H]1O[C@H]1C)[C@@H]3O", "DU-145", "active"),
    ("CCC1NC(=O)C(NC(=O)c2ncccc2O)C(C)OC(=O)C(c2ccccc2)NC(=O)C2CC(=O)CCN2C(=O)C(Cc2ccccc2)N(C)C(=O)C2CCCN2C1=O (stereo not given)", "DU-145", "inactive"),
    ("CN(C)/C=C/c1c2c(nc3ccccc13)C(=O)c1cccnc1C2=O", "DU-145", "active"),
    ("COC(=O)Nc1cc(OCCCOC(C)=O)c2[nH]c(C(=O)OC)cc2c1C[C@H](O)CO", "DU-145", "inactive"),
    ("O=C(Nc1ccc(Cl)cc1)Oc1ccc(C(=S)Nc2ccc(Br)cc2)cc1", "DU-145", "inactive"),
    ("CCC1OC2C(CC=C(C)C)=C3OC(C)(O)C(C)(CC)C(O)C3=C3OC(=O)C=C1C32 (stereo not given)", "DU-145", "inactive"),
    ("CCN1CCN(c2nc3ccccc3nc2C(=O)c2ccc(OC)cc2)CC1", "DU-145", "inactive"),
    ("COc1cc(/C=C2\\C[C@H]3[C@@H]4CC=C5C[C@@H](O)CC[C@]5(C)[C@H]4CC[C@]3(C)C2=O)cc(OC)c1OC", "DU-145", "inactive"),
    ("CSc1cc(Cl)c(C)cc1S(=O)(=O)NC(=O)NNc1ccc(F)cc1", "DU-145", "inactive"),
    ("COc1cc2c3cc1Oc1cc(ccc1O)C[C@@H]1c4c(cc(OC)c(O)c4Oc4ccc(cc4)C[C@@H]3N(C)CC2)CC[N+]1(C)C", "DU-145", "inactive"),
    ("CCOC(=O)c1sc2nc(SC)nc3c2c1NCN3c1ccccc1Cl", "DU-145", "inactive"),
    ("CC(=O)O[C@H]1C(=O)[C@@]2(C)[C@H]([C@H](OC(=O)C3CCCCC3)[C@]3(O)C[C@H](OC(=O)[C@H](O)[C@@H](NC(=O)C4CCCCC4)C4CCCCC4)C(C)=C1C3(C)C)[C@]1(OC(C)=O)CO[C@@H]1C[C@@H]2O", "DU-145", "active"),
    ("O=C(O)c1cc2c(cc1CC(Cc1ccc3c(c1)CCCC3)C(=O)O)CCCC2 (stereo not given)", "DU-145", "inactive"),
    ("Cn1c(=O)c2[nH]c(C3CC(=O)CC(c4nc5c([nH]4)c(=O)n(C)c(=O)n5C)N3)nc2n(C)c1=O (stereo not given)", "DU-145", "inactive"),
    ("Cc1ccc(CC(Cc2ccc(C)cc2C(=O)O)C(=O)O)cc1 (stereo not given)", "DU-145", "inactive"),
    ("O=C(NC(CS)C(=O)O)c1c2ccccc2nc2ccccc12 (stereo not given)", "DU-145", "inactive"),
    ("COc1cc2[nH]c(=O)c3cc(-c4ccccc4)cc4c(Cl)nc(c1OC)c2c43", "DU-145", "inactive"),
    ("CN(C)c1n/c(=N/Cc2ccccc2)ss1", "DU-145", "inactive"),
    ("CCOC(=O)C1C(c2ccc(O)c(OC)c2)c2c(n[nH]c2O)CC1(C)O (stereo not given)", "DU-145", "inactive"),
    ("c1ccc(C(CCN2CC3CCC(CC3)C2)c2ccccc2)cc1", "DU-145", "inactive"),
    ("CC(=O)OC(C)[C@@H](NC(=O)[C@@H](CC(C)C)N(C)C(=O)[C@@H]1CCCN1C(=O)C(C)O)C(=O)OCc1ccccc1 (stereo not given in full) (H-[ξLac]P[dNMeL][dThr(3ξ)](Ac)-OBn)", "DU-145", "inactive"),
    ("COc1ccc(C[N+]23C(CC[C@H]2c2ccccc2)CC[C@H]3c2ccccc2)cc1 (stereo not given in full)", "DU-145", "inactive"),
]
